Value source: ChEMBL document CHEMBL5120943

target entity: Cytochrome P450 1A2 (Homo sapiens, UniProt P05177)
Sequence (P05177 whole entry): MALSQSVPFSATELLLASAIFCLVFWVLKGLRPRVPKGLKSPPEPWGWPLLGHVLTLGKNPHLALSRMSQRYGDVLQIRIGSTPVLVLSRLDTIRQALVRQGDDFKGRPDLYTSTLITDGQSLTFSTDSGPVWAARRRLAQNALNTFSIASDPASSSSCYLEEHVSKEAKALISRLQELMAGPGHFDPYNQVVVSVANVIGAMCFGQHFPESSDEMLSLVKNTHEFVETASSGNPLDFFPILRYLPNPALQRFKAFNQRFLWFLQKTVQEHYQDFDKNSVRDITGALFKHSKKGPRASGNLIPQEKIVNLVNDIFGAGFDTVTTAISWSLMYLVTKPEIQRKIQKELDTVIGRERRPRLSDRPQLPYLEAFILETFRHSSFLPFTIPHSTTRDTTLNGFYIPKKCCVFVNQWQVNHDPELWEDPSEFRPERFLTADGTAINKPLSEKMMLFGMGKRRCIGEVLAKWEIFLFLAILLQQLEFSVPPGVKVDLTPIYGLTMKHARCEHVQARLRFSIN
pIC50: −log10 of the molar value.
measured quantity: pIC50

Query block: // output pIC50; input COC(=O)N1C[C@@H](C)N(c2ncc3[nH]nc(-c4ccc(N5CCN(C)CC5)cc4)c3n2)[C@@H](C)C1 ; system Cytochrome P450 1A2 (Homo sapiens, UniProt P05177)
Result block: < 4.60

====

target entity: Activin receptor type-1 (Homo sapiens, UniProt Q04771)
Sequence (Q04771 whole entry): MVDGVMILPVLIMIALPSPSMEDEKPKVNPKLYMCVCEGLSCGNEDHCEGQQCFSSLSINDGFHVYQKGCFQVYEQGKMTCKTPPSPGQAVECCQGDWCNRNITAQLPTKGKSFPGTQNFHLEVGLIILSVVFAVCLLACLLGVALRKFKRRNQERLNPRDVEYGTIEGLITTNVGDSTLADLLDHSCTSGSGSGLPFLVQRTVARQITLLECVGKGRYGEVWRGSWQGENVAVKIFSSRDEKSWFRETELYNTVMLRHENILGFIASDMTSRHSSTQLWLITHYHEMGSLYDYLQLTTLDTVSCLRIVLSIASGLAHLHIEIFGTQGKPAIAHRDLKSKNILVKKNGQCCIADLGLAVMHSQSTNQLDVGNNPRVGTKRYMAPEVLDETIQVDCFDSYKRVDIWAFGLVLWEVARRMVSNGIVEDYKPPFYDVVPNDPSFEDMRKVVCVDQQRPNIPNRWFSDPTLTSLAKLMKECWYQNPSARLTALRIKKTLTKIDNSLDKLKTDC
procedure details: Inhibition of ALK2 in human HeLa cells assessed as reduction in BMP-7 induced SMAD1 phosphorylation incubated for 1 hr followed BMP-7 stimulation for 30 mins by HTRF assay
Type: cell-based
measured quantity: log10 IC50 (log10 of the value in nM)
Log scale reminder: IC50 in nM, then log10 taken.

{"compound smiles": "COC(=O)N1C[C@@H](C)N(c2ncc3[nH]nc(-c4ccc(N5CCN(C)CC5)c(F)c4)c3n2)[C@@H](C)C1", "readout number": 2.08}
{"compound smiles": "COC(=O)N1C[C@@H](C)N(c2ncc3[nH]nc(-c4ccc(N5CCN[C@H](C)C5)nc4)c3n2)[C@@H](C)C1", "readout number": 1.43}
{"compound smiles": "COC(=O)N1C[C@@H](C)N(c2ncc3[nH]nc(-c4ccc(N5CCN(C)CC5)cc4)c3n2)[C@@H](C)C1", "readout number": 1.79}

Query block: Determine from records and report log10 IC50 for COCC(=O)N1C[C@@H](C)N(c2ncc3[nH]nc(-c4ccc(N5CCN[C@H](C)C5)nc4)c3n2)[C@@H](C)C1
Result block: 2.54

Query block: Determine from records and report log10 IC50 for CC(C)C(=O)N1C[C@@H](C)N(c2ncc3[nH]nc(-c4ccc(N5CCN[C@H](C)C5)nc4)c3n2)[C@@H](C)C1
Result block: 2.82

Query block: Determine from records and report log10 IC50 for C[C@@H]1CN(c2ccc(-c3n[nH]c4cnc(N5[C@H](C)COC[C@@H]5C)nc34)cn2)CCN1
Result block: 2.39

====

target entity: Activin receptor type-1 (Homo sapiens, UniProt Q04771)
Sequence (Q04771 whole entry): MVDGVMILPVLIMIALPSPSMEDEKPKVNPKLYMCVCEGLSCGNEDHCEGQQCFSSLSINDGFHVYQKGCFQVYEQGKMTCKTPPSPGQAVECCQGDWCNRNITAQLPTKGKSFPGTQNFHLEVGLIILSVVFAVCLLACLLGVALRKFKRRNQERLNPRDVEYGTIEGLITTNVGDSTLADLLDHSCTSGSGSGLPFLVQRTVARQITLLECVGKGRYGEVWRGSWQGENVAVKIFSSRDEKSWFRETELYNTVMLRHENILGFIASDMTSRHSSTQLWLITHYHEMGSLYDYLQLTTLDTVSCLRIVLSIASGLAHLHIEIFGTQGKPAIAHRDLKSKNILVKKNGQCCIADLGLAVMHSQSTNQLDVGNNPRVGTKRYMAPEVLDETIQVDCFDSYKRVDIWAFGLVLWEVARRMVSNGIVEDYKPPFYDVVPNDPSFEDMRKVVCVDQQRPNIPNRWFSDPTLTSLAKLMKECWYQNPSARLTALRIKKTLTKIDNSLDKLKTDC
procedure details: Inhibition of ALK2 in human HeLa cells assessed as reduction in BMP-7 induced SMAD1 phosphorylation incubated for 1 hr followed BMP-7 stimulation for 30 mins by HTRF assay
Type: cell-based
Overview of reported IC50 across a group of compounds:
Write the answer as a number in nM, unit excluded.

Below, 2 compounds whose answers are already recorded.
{"compound smiles": "CCOC(=O)N1C[C@@H](C)N(c2ncc3[nH]nc(-c4ccc(N5CCN[C@H](C)C5)nc4)c3n2)[C@@H](C)C1", "IC50 / nM": 212}
{"compound smiles": "C[C@@H]1CN(c2ccc(-c3n[nH]c4cnc(N5[C@H](C)CCC[C@@H]5C)nc34)cn2)CCN1", "IC50 / nM": 384}

Query block: Determine from records and report IC50 for C[C@@H]1CN(c2ccc(-c3n[nH]c4cnc(N5[C@H](C)CN(C(=O)N(C)C)C[C@@H]5C)nc34)cn2)CCN1
Result block: 350

====

procedure details: Oral bioavailability in Sprague-Dawley rat at 3 mg/kg measured upto 24 hrs post dose by LC/MS/MS analysis
Type: ADME, organism-based
assay conditions: in vivo
measured quantity: bioavailability (%)
Write the answer as a number in %, unit excluded.

{"compound smiles": "C[C@@H]1CN(c2ccc(-c3n[nH]c4cnc(N5[C@H](C)CN(C(=O)N6CCCC6)C[C@@H]5C)nc34)cn2)CCN1", "bioavailability [%]": 46}

Query block: Determine from records and report bioavailability for COC(=O)N1C[C@@H](C)N(c2ncc3[nH]nc(-c4ccc(N5CCN[C@H](C)C5)nc4)c3n2)[C@@H](C)C1
Result block: 49

Query block: Determine from records and report bioavailability for COC(=O)N1C[C@@H](C)N(c2ncc3[nH]nc(-c4ccc(N5CCN(C)CC5)cc4)c3n2)[C@@H](C)C1
Result block: 85

====

target entity: Activin receptor type-1 (Homo sapiens, UniProt Q04771)
procedure details: Inhibition of human recombinant N-terminal GST tagged ALK2 (147 to end residues) expressed in baculovirus infected in Sf9 cells assessed as loss of peptide phosphorylation activity using peptide substrate in presence of ATP and measured after 3 hrs by HTRF assay
measured quantity: IC50 (nM)
Write the answer as a number in nM, unit excluded.

Below, 5 compounds whose answers are already recorded.
{"compound": "C[C@@H]1CN(c2ccc(-c3n[nH]c4cnc(N5[C@H](C)COC[C@@H]5C)nc34)cn2)CCN1", "IC50 [nM]": 23}
{"compound": "C[C@@H]1CN(c2ccc(-c3n[nH]c4cnc(N5CCCCC5)nc34)cn2)CCN1", "IC50 [nM]": 8.1}
{"compound": "COC(=O)N1C[C@@H](C)N(c2ncc3[nH]nc(-c4ccc(N5CCN(C)CC5)c(F)c4)c3n2)[C@@H](C)C1", "IC50 [nM]": 1.3}
{"compound": "C[C@@H]1CN(c2ccc(-c3n[nH]c4cnc(N5CCCCC5)cc34)cn2)CCN1", "IC50 [nM]": 77}
{"compound": "CC1CCCCN1c1ncc2[nH]nc(-c3ccc(N4CCN[C@H](C)C4)nc3)c2n1 (some centres undefined)", "IC50 [nM]": 8.1}

Query block: // output IC50; input C[C@@H]1CN(c2ccc(-c3n[nH]c4cnc(N5[C@H](C)CN(C(=O)N(C)C)C[C@@H]5C)nc34)cn2)CCN1 ; system Activin receptor type-1 (Homo sapiens, UniProt Q04771)
Result block: 6.4

Query block: // output IC50; input COC(=O)N1C[C@@H](C)N(c2ncc3[nH]nc(-c4ccc(N5CCN[C@H](C)C5)nc4)c3n2)[C@@H](C)C1 ; system Activin receptor type-1 (Homo sapiens, UniProt Q04771)
Result block: 0.85

Query block: // output IC50; input COC(=O)N1C[C@@H](C)N(c2ncc3[nH]nc(-c4ccc(N5CCN(C)CC5)cc4)c3n2)[C@@H](C)C1 ; system Activin receptor type-1 (Homo sapiens, UniProt Q04771)
Result block: 0.98

Query block: // output IC50; input C[C@@H]1CN(c2ccc(-c3n[nH]c4cnc(N5[C@H](C)CNC[C@@H]5C)nc34)cn2)CCN1 ; system Activin receptor type-1 (Homo sapiens, UniProt Q04771)
Result block: 793

Query block: // output IC50; input CC(C)C(=O)N1C[C@@H](C)N(c2ncc3[nH]nc(-c4ccc(N5CCN[C@H](C)C5)nc4)c3n2)[C@@H](C)C1 ; system Activin receptor type-1 (Homo sapiens, UniProt Q04771)
Result block: 8

Query block: // output IC50; input CCOC(=O)N1C[C@@H](C)N(c2ncc3[nH]nc(-c4ccc(N5CCN[C@H](C)C5)nc4)c3n2)[C@@H](C)C1 ; system Activin receptor type-1 (Homo sapiens, UniProt Q04771)
Result block: 4.9

Query block: // output IC50; input C[C@@H]1CN(c2ccc(-c3n[nH]c4cnc(N5[C@H](C)CCC[C@@H]5C)nc34)cn2)CCN1 ; system Activin receptor type-1 (Homo sapiens, UniProt Q04771)
Result block: 2.5

Query block: // output IC50; input COCC(=O)N1C[C@@H](C)N(c2ncc3[nH]nc(-c4ccc(N5CCN[C@H](C)C5)nc4)c3n2)[C@@H](C)C1 ; system Activin receptor type-1 (Homo sapiens, UniProt Q04771)
Result block: 7.3

Query block: // output IC50; input C[C@@H]1CN(c2ccc(-c3n[nH]c4ccc(N5CCCCC5)nc34)cn2)CCN1 ; system Activin receptor type-1 (Homo sapiens, UniProt Q04771)
Result block: 95
